test system: Escherichia coli TOP10; assay: shrunken log2 fold change of peptide-encoding DNA abundance (4.5 h post-induction vs induction); higher = less antimicrobial activity (less host growth inhibition); settings: time post-induction: 4.5 h; library: site-saturation at positions 5, 18, 19, 20;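 further: peptides expressed intracellularly from a pBAD plasmid library in pooled LB shake-flask culture, induced with 0.3% L-arabinose, DNA abundance read by NGS, three biological replicates, DESeq2 with apeglm shrinkage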
The entries below are paired with their reported shrunken log2 fold change.
Please reply with the value in numeric form only.

# count of solved cases: 4
seq_string=RRIRLRPPRLPRPRPRPWPQPRP observed_result=0.244
seq_string=RRIRQRPPRLPRPRPRPSIPPRP observed_result=-0.751
seq_string=RRIRIRPPRLPRPRPRPWMNPRP observed_result=-0.238
seq_string=RRIRLRPPRLPRPRPRPYYKPRP observed_result=-0.569

[ask] Name the reported shrunken log2 fold change value associated with the sequence RRIRARPPRLPRPRPRPGCGPRP
[reply] 0.887

[ask] Name the reported shrunken log2 fold change value associated with the sequence RRIRTRPPRLPRPRPRPGVKPRP
[reply] 0.14

[ask] Name the reported shrunken log2 fold change value associated with the sequence RRIRWRPPRLPRPRPRPLWQPRP
[reply] 0.156

[ask] Name the reported shrunken log2 fold change value associated with the sequence RRIRPRPPRLPRPRPRPSSRPRP
[reply] -0.863
